# TARGET DESC: T1, histidine-tagged human uPAR (Sino#10925-H08H) (human, UniProt Q03405 23-303)
# T1 construct: also called uPAR-His
# EXPERIMENTAL DETAILS: BLI (Octet), antibody on anti-mouse Fc sensor, uPAR in solution
ENDPOINT: kon (M⁻¹ s⁻¹)
Kindly provide the numeric value in M⁻¹ s⁻¹ only, without the unit symbol.

INSERT INTO measurements (binder, endpoint, readout_unit, endpoint_value) VALUES
  ('M5 (antibody, V domains shown, Mouse hybridoma antibody; also called anti-uPAR antibody M5; parental M5) VH: QVQLKESGPGLVAPSQSLSITCTVSGFSLTNYGVHWVRQPPGKDLEWLVVIWSDGGTTYNSALKSRLSISKDNSKSQVFLKMNSLQTDDTAMYYCARGGRSDLFAYWGQGTLVTVSA VL: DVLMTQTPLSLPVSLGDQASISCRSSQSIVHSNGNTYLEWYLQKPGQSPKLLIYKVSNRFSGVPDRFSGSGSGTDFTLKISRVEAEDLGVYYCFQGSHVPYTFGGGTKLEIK', 'kon', 'M⁻¹ s⁻¹', 29100),
  ('M43 (antibody, V domains shown, Mouse hybridoma antibody; also called anti-uPAR antibody M43; parental M43) VH: QVQLQQSGAELARPGASVNLSCKASGYTFTSYGISWVKQRTGQGLEWIGEIYPRSGNTYYNEKFKGKATLTADKSSRTAYMELRSLTSEDSAVYFCAGKDYGSTYADYWGQGTTLTVSS VL: QIVLTQSPAIMSASPGEKVTMTCSASSSVSSRYLHWYQQKSGASPKLWIYGTSNLASGVPARFSGSGSGTSYSLTINSVEAEDAATYYCQQYHSDPLTFGAGTKLELK', 'kon', 'M⁻¹ s⁻¹', '1.18e+06'),
  ('M8 (antibody, V domains shown, Mouse hybridoma antibody; also called anti-uPAR antibody M8; parental M8) VH: QIQLVQSGPELKKPGETVKISCKASGNTFTDYGMNWVKQSPGKGLKWMGWINTNTGEPTYADDFKGRFAFSLETSASTAYLQINNLKNEDMATYFCAHYSFDYWGQGTTLTVSS VL: DIQMTQSPASLSVSVGQTVTITCRTSENIYSNLAWYQQKPGKSPQLLVYAATNLADGVPSRFSGSGSGTQYSLKINSLQSEDFGSYYCQHFWGTPWTFGGGTKLEIK', 'kon', 'M⁻¹ s⁻¹', 584000);

Asked: Assign kon to the following record: M1 (antibody, V domains shown, Mouse hybridoma antibody; also called anti-uPAR antibody M1; parental M1) VH: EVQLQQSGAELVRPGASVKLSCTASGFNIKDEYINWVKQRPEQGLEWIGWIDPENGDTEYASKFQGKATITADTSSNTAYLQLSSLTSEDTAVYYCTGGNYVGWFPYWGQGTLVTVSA VL: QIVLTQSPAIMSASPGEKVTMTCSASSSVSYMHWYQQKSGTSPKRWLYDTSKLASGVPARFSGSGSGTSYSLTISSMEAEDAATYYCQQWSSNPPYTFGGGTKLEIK
Given back: 664000
